# System: Tryptase, from human lung
# PROTOCOL_DESCRIPTION: Enzymatic assay, tryptase
# EXPERIMENTAL_CONTEXT: at 100 μM
Where a SMILES comes first, the peptide text is derived from it.
PROPERTY_NAME: Tryptase at 100 μM % (%)
Please respond with the number in % and leave the unit unwritten.

CCCC[C@@H]1NC(=O)[C@@H]2CCCN2C(=O)[C@H]2CCCN2C(=O)[C@H](Cc2ccc(O)cc2)NC(=O)[C@H](CCCCN)NC(=O)[C@H](CCC(N)=O)NC(=O)[C@@H]2CCCN2C(=O)[C@@H]2CCCN2C(=O)[C@H]([C@@H](C)CC)NC(=O)[C@H](CO)NC(=O)[C@H](C)NC(=O)[C@H]([C@@H](C)O)NC(=O)[C@H](CCC(=O)O)NC1=O [Ex. 104] (HELM PEPTIDE1{[Nle].E.T.A.S.I.P.P.Q.K.Y.[dP].P}$PEPTIDE1,PEPTIDE1,1:R1-13:R2$$$V2.0) :: 0

Now for a further compound.
Q: Given the entry CCCC[C@@H]1NC(=O)[C@H]([C@@H](C)O)NC(=O)[C@@H]2CSSC[C@H](NC(=O)[C@H]([C@@H](C)CC)NC(=O)[C@@H]3CCCN3C(=O)[C@@H]3CCCN3C(=O)[C@H](CC(=O)O)NC(=O)[C@H](CO)NC1=O)C(=O)N[C@@H](Cc1ccc(O)cc1)C(=O)N1CCC[C@@H]1C(=O)N1CCC[C@H]1C(=O)N[C@@H](Cc1ccccc1)C(=O)N2 [Ex. 60] (HELM PEPTIDE1{F.C.T.[Nle].S.D.P.P.I.C.Y.[dP].P}$PEPTIDE1,PEPTIDE1,2:R3-10:R3|PEPTIDE1,PEPTIDE1,1:R1-13:R2$$$V2.0) , report its measured Tryptase at 100 μM %.
Ans: 29.4

====

# TESTED_TARGET: Thrombin, from Human Plasma (Homo sapiens)
# PROTOCOL_DESCRIPTION: Enzymatic assay, thrombin
Where a SMILES comes first, the peptide text is derived from it.
PROPERTY_NAME: Thrombin at 100 μM % (%)
Report only the number, with the unit % understood.

CC[C@H](C)[C@@H]1NC(=O)[C@H](C)NC(=O)[C@@H]2CCCN2C(=O)[C@H](CC(=O)O)NC(=O)[C@H](CO)NC(=O)[C@H](CCCCN)NC(=O)[C@H]([C@@H](C)O)NC(=O)[C@@H]2CSSC[C@H](NC1=O)C(=O)N[C@@H](CCCNC(=N)N)C(=O)N1CCC[C@@H]1C(=O)N1CCC[C@H]1C(=O)N[C@@H]([C@@H](C)CC)C(=O)N2 [Ex. 14] (HELM PEPTIDE1{I.C.T.K.S.D.P.A.I.C.R.[dP].P}$PEPTIDE1,PEPTIDE1,2:R3-10:R3|PEPTIDE1,PEPTIDE1,1:R1-13:R2$$$V2.0) :: 8.7
CC[C@H](C)[C@@H]1NC(=O)[C@@H]2CCCN2C(=O)[C@@H]2CCCN2C(=O)[C@H](CC(=O)O)NC(=O)[C@H](CO)NC(=O)[C@H](CCCCN)NC(=O)[C@H]([C@@H](C)O)NC(=O)[C@@H]2CSSC[C@H](NC1=O)C(=O)N[C@@H]([C@@H](C)O)C(=O)N1CCC[C@@H]1C(=O)N1CCC[C@H]1C(=O)N[C@@H](CCc1ccccc1)C(=O)N2 [Ex. 28] (HELM PEPTIDE1{[O=C([C@H](CCc1ccccc1)N[*:1])[*:2]].C.T.K.S.D.P.P.I.C.T.[dP].P}$PEPTIDE1,PEPTIDE1,2:R3-10:R3|PEPTIDE1,PEPTIDE1,1:R1-13:R2$$$V2.0) :: 12
CC[C@H](C)[C@@H]1NC(=O)[C@@H]2CCCN2C(=O)[C@@H]2CCCN2C(=O)[C@H](CC(=O)O)NC(=O)[C@H](CO)NC(=O)[C@H](CCCCN)NC(=O)[C@H]([C@@H](C)O)NC(=O)[C@@H]2CSSC[C@H](NC1=O)C(=O)N[C@@H](Cc1ccc(O)cc1)C(=O)N1CCC[C@@H]1C(=O)N1CCC[C@H]1C(=O)N[C@@H](CCc1ccccc1)C(=O)N2 [Ex. 30] (HELM PEPTIDE1{[O=C([C@H](CCc1ccccc1)N[*:1])[*:2]].C.T.K.S.D.P.P.I.C.Y.[dP].P}$PEPTIDE1,PEPTIDE1,2:R3-10:R3|PEPTIDE1,PEPTIDE1,1:R1-13:R2$$$V2.0) :: 2

// switching to the query compound
Q: Name the reported Thrombin at 100 μM % value associated with the compound C[C@@H]1NC(=O)[C@H]([C@@H](C)O)NC(=O)[C@@H]2CSSC[C@H](NC(=O)[C@H](CCC(N)=O)NC(=O)[C@@H]3CCCN3C(=O)[C@@H]3CCCN3C(=O)[C@H](CC3CCCCC3)NC(=O)[C@H](CO)NC1=O)C(=O)N[C@@H](Cc1ccccc1)C(=O)N1CCC[C@@H]1C(=O)N1CCC[C@H]1C(=O)N[C@@H](CCc1ccccc1)C(=O)N2 [Ex. 155] (HELM PEPTIDE1{[O=C([C@H](CCc1ccccc1)N[*:1])[*:2]].C.T.A.S.[Cha].P.P.Q.C.F.[dP].P}$PEPTIDE1,PEPTIDE1,2:R3-10:R3|PEPTIDE1,PEPTIDE1,1:R1-13:R2$$$V2.0)
Ans: 19
